Tested on: SNB-75 CNS
Test: NCI-60 one-dose screen, 48 h (100 = growth as untreated, 0 = no growth, -100 = all killed)
Conditions: 10 µM unless noted
Description: Growth inhibition of the SNB-75 human tumor cell line is measured as a screen for anti-cancer activity. Cells are grown in 96 well plates and exposed to the test compound for 48 hours. Compounds are tested at a single concentration, which is 10^-5 M for most compounds. The reported endpoint is percent growth (GI% or GIPRCNT), where numbers from 0 - 100% represent growth inhibition, and numbers from -100% - 0 represent cell death. For example, a value of 40 represents 60% growth inhibition. […]
Compounds without any hit were thinned out: in the full panel of roughly 83,000, 20% have a hit.
Listing: growth of selected molecules
valueType: growth (%)

* CCOC(=O)c1c2c(c(C)n1C)-c1nn(Cc3ccc(OC)cc3)cc1CC2 | 103
* Cc1ccc(Nc2ccc(Nc3ccc(C)cc3S(=O)(=O)O)c3c2C(=O)c2ccccc2C3=O)c(S(=O)(=O)O)c1 | 85.3
* O=C1C2=C(CCN(Cc3ccccc3)C2)N2CCN=C2N1Cc1ccc(C(F)(F)F)cc1 | 38.1
* COc1cc(-c2ccc(N=Nc3c(O)c(C(=O)Nc4ccccc4OC)cc4ccccc34)c(OC)c2)ccc1N=Nc1c(O)c(C(=O)Nc2ccccc2OC)cc2ccccc12 | 74.8
* COC(=O)c1ccc2oc(NC(=O)c3ccc(N4CCOCC4)c([N+](=O)[O-])c3)nc2c1 | 79.7
* CCN(CC)CCCC(C)NCc1ccccc1 (stereo not drawn) | 99.8
* C=C1C(=O)O[C@H]2[C@H]1CC/C(Cn1cc(CNCCc3c[nH]c4ccc(Cl)cc34)nn1)=C\CC[C@@]1(C)O[C@@H]21 | 69.6
* C=C1c2c(C)nn(-c3ccc(N)cc3)c2N(C)C23CC1C1(C)c4c(C)nn(-c5ccc(N)cc5)c4N(C)C(C)(CC12)C3 (stereo not drawn) | 109
